Where these numbers come from: patent US20180282279A1

The entries below come with measured MIC values attached.
- Test system: Streptococcus pyogenes
- assay_notes: Bacterial growth assay and MIC determination, S. pyogenes
- Assay type: cell-based
- condition_description: Streptococcus pyogenes; Table 1; most sensitive species S. pyogenes (SP); read-out: MIC (μg/ml) for most sensitive bacterial species
Quick reminder: number only, in µg/mL, skip the unit.

Below, 2 compounds whose answers are already recorded.
| compound | system | value_measured |
| --- | --- | --- |
| CC(C)(CO)[C@@H](O)C(=O)NCCNC(=O)CCc1cccs1 [CXP18.6-047] | Streptococcus pyogenes | 8 |
| C#CCCCC(=O)NCCNC(=O)[C@H](O)C(C)(C)CO [CXP14.18-016] | Streptococcus pyogenes | 32 |

**Q:** Output measured MIC for this item: CC(C)(CO)[C@@H](O)C(=O)NCCNC(=O)CCc1cccc(F)c1 [CXP18.6-018]
**A:** 16

**Q:** Given the compound CCCCC(=O)NCCNC(=O)[C@H](O)C(C)(C)CO [CXP14.18-028] , write its reported MIC.
**A:** 2

**Q:** Provide measured MIC value, entry: C=CCCC(=O)NCCNC(=O)[C@H](O)C(C)(C)CO [CXP14.18-007]
**A:** 16

---

Items are presented alongside their recorded Tmax.
- assay_notes: Pharmacokinetic study in rats
- Format: in vivo
- condition_description: rat, blood, 50 mg/kg in saline, oral administration

| compound | value_measured |
| --- | --- |
| CCCCCC(=O)NCCNC(=O)[C@H](O)C(C)(C)CO [CXP18.6-013] | 19.8 min |

Now, please, on to the next compound.
**Q:** Answer with the recorded Tmax for the compound listed here: CC(C)(CO)[C@@H](O)C(=O)NCCNC(=O)CCc1ccccc1 [CXP18.6-006]
**A:** 19.8 min

---

- assay_notes: Pharmacokinetic study in rats
- Assay type: in vivo
- condition_description: rat, blood, 50 mg/kg in saline, oral administration
property: Cmax (ng/mL)
Please respond with the number in ng/mL and leave the unit unwritten.

| compound_smiles | Cmax (ng/mL) |
| --- | --- |
| CC(C)(CO)[C@@H](O)C(=O)NCCNC(=O)CCc1ccccc1 | 3360 |

**Q:** Name the recorded Cmax of the item CCCCCC(=O)NCCNC(=O)[C@H](O)C(C)(C)CO in your answer.
**A:** 12100

---

- Test system: P. falciparum gametocytes
- assay_notes: microbe, parasite or virus in culture
- Format: cell-based, Plasmodium falciparum
- condition_description: Plasmodium falciparum; 72 hour incubation; read-out: Gametocyte viability (pLDH) IC50
The following molecules are shown together with reported pIC50 values.
// returns pIC50 (minus log10 of molar concentration), number only

Solved entries:
| molecule | system | property | value_measured |
| --- | --- | --- | --- |
| Cc1ccc(CCC(=O)NCCNC(=O)[C@H](O)C(C)(C)CO)c(F)c1 [CXP18.6-064] | P. falciparum gametocytes | pIC50 | 7.38 |
| Cc1ccc(CCC(=O)NCCNC(=O)[C@H](O)C(C)(C)CO)cc1 [CXP18.6-026] | P. falciparum gametocytes | pIC50 | 6.77 |

**Q:** Provide pIC50 value for the following molecule: CC(C)(CO)[C@@H](O)C(=O)NCCNC(=O)CCc1ccccc1F [CXP18.6-017]
**A:** 7.00

---

Catalogue of MIC readings, one per entry.
- Test system: Streptococcus pyogenes
- assay_notes: Bacterial growth assay and MIC determination, S. pyogenes
- Assay type: cell-based
- condition_description: Streptococcus pyogenes; Table 1; most sensitive species S. pyogenes (SP); read-out: MIC (μg/ml) for most sensitive bacterial species
Answer format: number, then unit.

**Q:** Name the recorded MIC of the compound listed here: CC(C)(CO)[C@@H](O)C(=O)NCCNC(=O)Cc1ccccc1 [CXP18.6-007]
**A:** 16 µg/mL

**Q:** Assign MIC to the following record: CCOCCC(=O)NCCNC(=O)[C@H](O)C(C)(C)CO [CXP14.18-035]
**A:** 16 µg/mL

**Q:** Please supply the value of reported MIC for the item CCCC(=O)NCCNC(=O)[C@H](O)C(C)(C)CO [CXP14.18-020]
**A:** 32 µg/mL

**Q:** Retrieve MIC measured for CC(C)CCC(=O)NCCNC(=O)[C@H](O)C(C)(C)CO [CXP14.18-005] and print it.
**A:** 8 µg/mL

**Q:** # return recorded MIC for entry CCCSCC(=O)NCCNC(=O)[C@H](O)C(C)(C)CO [CXP14.18-037]
**A:** 4 µg/mL

---

- Test system: Streptococcus pneumoniae
- assay_notes: MIC determination, S. pneumoniae
- Type: cell-based
- condition_description: Streptococcus pneumoniae; S. pneumoniae, serum −; read-out: MIC
property: MIC (µg/mL)
Your answer should be a plain number; it is taken to be in µg/mL.

Consider the reported MIC for these molecules:
| molecule | MIC, µg/mL |
| --- | --- |
| CCCCCNC(=O)CCNC(=O)[C@H](O)C(C)(C)CO [Compound N5-Pan, N-pentylpantothenamide, reference compound] | 0.25 |
| CCCCCCCNC(=O)CCNC(=O)[C@H](O)C(C)(C)CO [Compound N7-Pan, N-heptylpantothenamide, reference compound] | 2 |

Then there is this molecule:
**Q:** Tell me its MIC given CCCCCC(=O)NCCNC(=O)[C@H](O)C(C)(C)CO as the entry.
**A:** 4

---

Here, each record is paired with measured MIC data.
- Tested on: Streptococcus pyogenes
- assay_notes: Bacterial growth assay and MIC determination, S. pyogenes
- Type: cell-based
- condition_description: Streptococcus pyogenes; S. pyogenes, serum −; read-out: MIC
Respond numerically; units are µg/mL and should not be typed.

Example compounds with recorded MIC:
| compound | system | MIC / µg/mL |
| --- | --- | --- |
| CCCCCCCCCC(=O)NCCNC(=O)[C@H](O)C(C)(C)CO | Streptococcus pyogenes | 32 |
| CCCCCCCC(=O)NCCNC(=O)[C@H](O)C(C)(C)CO | Streptococcus pyogenes | 32 |
| CCCCCC(=O)NCCNC(=O)[C@H](O)C(C)(C)CO | Streptococcus pyogenes | 2 |
| CC(C)(CO)[C@@H](O)C(=O)NCCNC(=O)CCc1ccccc1F | Streptococcus pyogenes | 8 |

**Q:** Give me measured MIC, please, for this compound: CCCCCCCNC(=O)CCNC(=O)[C@H](O)C(C)(C)CO [Compound N7-Pan, N-heptylpantothenamide, reference compound]
**A:** 2

---

- Tested on: Streptococcus pyogenes
- assay_notes: Bacterial growth assay and MIC determination, S. pyogenes
- Format: cell-based
- condition_description: Streptococcus pyogenes; Table 1; most sensitive species S. pyogenes (SP); read-out: MIC (μg/ml) for most sensitive bacterial species
property: MIC (µg/mL)
Please state the figure in µg/mL; there is no need to write the unit.

**Q:** Provide MIC value for the following molecule: CSCCCC(=O)NCCNC(=O)[C@H](O)C(C)(C)CO
**A:** 8

**Q:** Output MIC of C=CCCCCC(=O)NCCNC(=O)[C@H](O)C(C)(C)CO
**A:** 16

**Q:** Fill in reported MIC for this entry: C=CCCCC(=O)NCCNC(=O)[C@H](O)C(C)(C)CO
**A:** 16

**Q:** Report measured MIC; entry is C=CC(C)CC(=O)NCCNC(=O)[C@H](O)C(C)(C)CO (stereo partly drawn)
**A:** 16

**Q:** Could you please provide reported MIC for CCSCCC(=O)NCCNC(=O)[C@H](O)C(C)(C)CO ? Thanks!
**A:** 8

**Q:** Entry CC(C)(CO)[C@@H](O)C(=O)NCCNC(=O)CCc1ccsc1 needs its MIC filled in; supply it.
**A:** 32

---

- Tested on: P. falciparum gametocytes
- assay_notes: microbe, parasite or virus in culture
- Format: cell-based, Plasmodium falciparum
- condition_description: Plasmodium falciparum; 72 hour incubation; read-out: Gametocyte viability (pLDH) IC50
Below, each entry is listed alongside its reported IC50.

Check out these entries, answers already filled in.
| compound_smiles | system | IC50 |
| --- | --- | --- |
| CC(C)(CO)[C@@H](O)C(=O)NCCNC(=O)CCc1ccccc1 | P. falciparum gametocytes | > 10 µM |
| CC(C)(CO)[C@@H](O)C(=O)NCCNC(=O)CCc1cccs1 | P. falciparum gametocytes | > 10 µM |

Pending compound:
**Q:** GET IC50 | system: P. falciparum gametocytes | item: CC(C)(CO)[C@@H](O)C(=O)NCCNC(=O)CCc1ccsc1
**A:** > 10 µM

---

- Tested on: Streptococcus pneumoniae
- assay_notes: MIC determination, S. pneumoniae
- Assay type: cell-based
- condition_description: Streptococcus pneumoniae; S. pneumoniae, serum −; read-out: MIC
property: MIC

| compound | property | value_measured |
| --- | --- | --- |
| CCCCCCCCCC(=O)NCCNC(=O)[C@H](O)C(C)(C)CO [CXP18.6-014] | MIC | > 32 µg/mL |
| CC(C)(CO)[C@@H](O)C(=O)NCCNC(=O)CCc1ccccc1F [CXP18.6-017] | MIC | > 32 µg/mL |

Moving on to the next compound.
**Q:** Tell us which MIC value is on record for CCCCCCCC(=O)NCCNC(=O)[C@H](O)C(C)(C)CO [CXP18.6-012]
**A:** > 32 µg/mL
